# assay_overview: qHTS assay for small molecule disruptors of the mitochondrial membrane potential (AID 720635)
# condition_label: HepG2 mitochondrial membrane potential, Mito-MPS dye ratio; series mostly up to 83.2 µM
# Text: U.S. Tox21 Program National Center for Advancing Translational Sciences [NCATS] NIH Chemical Genomics Center [NCGC] U.S. Environmental Protection Agency [EPA] National Institutes of Environmental Health Sciences [NIEHS] National Toxicology Program [NTP] U.S. Food and Drug Administration [FDA] […] The dye accumulates in the mitochondria of healthy cells as aggregates, with red fluorescence. […]
Records with an inconclusive call do not appear. Activity calls are given as the source filed them. The call rests on the fitted dose curve; in most records, active means well fitted inhibition curve with a large enough effect in the signal ratio in the repeat runs; inconclusive means weak or mixed curves, or effect the other way; inactive means flat fitted curve, though single readings scatter; the % refers to the signal ratio.
Outcomes: label 1 = active, label 0 = inactive

compound	label
CC[N+](C)(C)Cc1ccccc1Br	label 0
CCOC(=O)COc1ccc2c(C)c(CCN(CC)CC)c(=O)oc2c1	label 0
COC1=C(C(=O)O)N2C(=O)[C@@H](NC(=O)[C@H](N)C3=CCC=CC3)[C@H]2SC1	label 0
CO/N=C(\C(=O)N[C@@H]1C(=O)N2C(C(=O)O)=CCS[C@H]12)c1csc(N)n1	label 0
O=C[C@H](O)[C@@H](O)[C@H](O[C@H]1O[C@H](CO)[C@@H](O[C@H]2O[C@H](CO)[C@@H](O)[C@H](O)[C@H]2O)[C@H](O)[C@H]1O)[C@H](O)CO	label 0
CCCCC(=O)O[C@H]1CC[C@H]2[C@@H]3CCc4cc(O)ccc4[C@H]3CC[C@]12C	label 1
CO[C@H]1C[C@@H]2CC[C@@H](C)[C@@](O)(O2)C(=O)C(=O)N2CCCC[C@H]2C(=O)O[C@H]([C@H](C)C[C@@H]2CC[C@@H](OCCO)[C@H](OC)C2)CC(=O)[C@H](C)/C=C(\C)[C@@H](O)[C@@H](OC)C(=O)[C@H](C)C[C@H](C)/C=C/C=C/C=C/1C	label 1
CCOc1ccc(N=Nc2ccc(N)cc2N)cc1	label 1
Cn1c(O)c(N=NC(N)=S)c2ccccc21	label 1
CN[C@@H]1[C@@H](O)[C@@H](O[C@@H]2[C@@H](O)[C@H](O[C@H]3O[C@H](CN)[C@@H](O)[C@H](O)[C@H]3O)[C@@H](N)C[C@H]2NC(=O)C(O)CN)OC[C@]1(C)O (stereo partly specified)	label 0
Cc1cccc(C)c1Nc1ncccc1C(=O)O	label 1
CCCCCCCCCCCCCCCC(=O)O[C@@H]1CC(C)=C(/C=C/C(C)=C/C=C/C(C)=C/C=C/C=C(C)/C=C/C=C(C)/C=C/C2=C(C)C[C@@H](OC(=O)CCCCCCCCCCCCCCC)CC2(C)C)C(C)(C)C1	label 0
C[C@@H]1C/C=C/C=C/C=C/C=C/[C@H](O[C@@H]2O[C@H](C)[C@@H](O)[C@H](N)[C@@H]2O)C[C@@H]2O[C@](O)(C[C@@H](O)C[C@H]3O[C@@H]3/C=C/C(=O)O1)C[C@H](O)[C@H]2C(=O)O	label 0
OC[C@H]1OC([S-])[C@H](O)[C@@H](O)[C@@H]1O.[Au+] (stereo partly specified)	label 0
CC1(C)S[C@@H]2[C@H](NC(=O)[C@H](NC(=O)N3CCN(S(C)(=O)=O)C3=O)c3ccccc3)C(=O)N2[C@H]1C(=O)O	label 0
C#C[C@]1(O)CC[C@H]2[C@@H]3CCC4=C/C(=N/O)CC[C@@H]4[C@H]3CC[C@@]21CC	label 1

---

# assay_overview: qHTS assay to identify aromatase inhibitors - cell viability counter screen (AID 743084);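 further: cells stimulated with testosterone during compound exposure; on the % scale 0 is the no-effect control and ±100 the full control effect; nearly all actives have a fitted effect of over 55% in size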
# condition_label: MCF-7 aro ERE viability, CellTiter-Fluor, 24 h; series mostly up to 70.3 µM
Inconclusive results are not listed. Activity calls are given as the source filed them. Calls follow the shape of the dose curve; as a rule, active = well fitted cell-killing curve with a large enough effect in the repeat runs; inconclusive = weak or mixed curves, or effect the other way; inactive = no such curve, though single readings can be large or run the other way.

compound	outcome
O=C(Cc1cccs1)N[C@@H]1C(=O)N2C(C(=O)[O-])=C(C[n+]3ccccc3)CS[C@H]12	inactive
NNc1nnc(Cc2ccncc2)c2ccccc12	inactive
COc1cc(S(C)=O)ccc1-c1nc2ncccc2[nH]1 (configuration not stated)	inactive
CO/N=C(\C(=O)N[C@@H]1C(=O)N2C(C(=O)O)=C(CSC(=O)c3ccco3)CS[C@H]12)c1csc(N)n1	inactive
OC[C@@H](O)C(O)[C@H](O)CO	inactive
Cc1ncc(C[n+]2csc(CCOP(=O)(O)OP(=O)(O)O)c2C)c(N)n1	inactive
Cc1ccc(C2(O)CCN(CCCC(=O)c3ccc(F)cc3)CC2)cc1	inactive
CC(CC(c1ccccc1)c1ccccc1)NC(C)(C)C (configuration not stated)	inactive
CCC(C)[C@@H](N)C(=O)O (some centres not stated)	inactive
CCOC(=O)C1=C[C@@H](OC(CC)CC)[C@H](NC(C)=O)[C@@H](N)C1	inactive
CC1(C)[C@@H]2CC[C@@]1(C)[C@H](OC(=O)CSC#N)C2	inactive
CS(=O)(=O)OCCCNCCCOS(C)(=O)=O	inactive
COc1c(O[C@@H]2O[C@H](CO)[C@@H](O)[C@H](O)[C@H]2O)cc2c(c1OC)-c1ccc(SC)c(=O)cc1[C@@H](NC(C)=O)CC2	inactive
O=P(O)(O)OC[C@H]1O[C@](O)(COP(=O)(O)O)[C@@H](O)[C@@H]1O	inactive
N[C@H](CCC(=O)O)C(=O)O	inactive
CCCCC(O)c1ccccc1 (configuration not stated)	inactive
CCC(=O)O[C@@H]1CC(=O)O[C@H](C)C/C=C/C=C/[C@H](O)[C@H](C)C[C@H](CC=O)[C@H](O[C@@H]2O[C@H](C)[C@@H](O[C@H]3C[C@@](C)(O)[C@@H](OC(=O)CC)[C@H](C)O3)[C@H](N(C)C)[C@H]2O)[C@H]1OC	inactive
NCCC(=O)[N-][C@@H](Cc1cnc[nH]1)C(=O)O.[Zn]	inactive
CC(=O)N[C@@H](CC(=O)N[C@@H](CCC(=O)O)C(=O)O)C(=O)O	inactive
CCCCCCCCCCCCCCCC(=O)OCCC1CCN(CCCN2c3ccccc3Sc3ccc(S(=O)(=O)N(C)C)cc32)CC1	inactive
COc1ccc2c(=O)c(C)c(-c3ccccc3)oc2c1CN(C)C	inactive
O=C(Cn1c(=O)sc2ccc(Cl)cc21)N1CCN(CCO)CC1	inactive

---

# experimental_target: Androgen receptor (Homo sapiens) (UniProt P10275)
# Sequence (P10275 whole entry, looked up): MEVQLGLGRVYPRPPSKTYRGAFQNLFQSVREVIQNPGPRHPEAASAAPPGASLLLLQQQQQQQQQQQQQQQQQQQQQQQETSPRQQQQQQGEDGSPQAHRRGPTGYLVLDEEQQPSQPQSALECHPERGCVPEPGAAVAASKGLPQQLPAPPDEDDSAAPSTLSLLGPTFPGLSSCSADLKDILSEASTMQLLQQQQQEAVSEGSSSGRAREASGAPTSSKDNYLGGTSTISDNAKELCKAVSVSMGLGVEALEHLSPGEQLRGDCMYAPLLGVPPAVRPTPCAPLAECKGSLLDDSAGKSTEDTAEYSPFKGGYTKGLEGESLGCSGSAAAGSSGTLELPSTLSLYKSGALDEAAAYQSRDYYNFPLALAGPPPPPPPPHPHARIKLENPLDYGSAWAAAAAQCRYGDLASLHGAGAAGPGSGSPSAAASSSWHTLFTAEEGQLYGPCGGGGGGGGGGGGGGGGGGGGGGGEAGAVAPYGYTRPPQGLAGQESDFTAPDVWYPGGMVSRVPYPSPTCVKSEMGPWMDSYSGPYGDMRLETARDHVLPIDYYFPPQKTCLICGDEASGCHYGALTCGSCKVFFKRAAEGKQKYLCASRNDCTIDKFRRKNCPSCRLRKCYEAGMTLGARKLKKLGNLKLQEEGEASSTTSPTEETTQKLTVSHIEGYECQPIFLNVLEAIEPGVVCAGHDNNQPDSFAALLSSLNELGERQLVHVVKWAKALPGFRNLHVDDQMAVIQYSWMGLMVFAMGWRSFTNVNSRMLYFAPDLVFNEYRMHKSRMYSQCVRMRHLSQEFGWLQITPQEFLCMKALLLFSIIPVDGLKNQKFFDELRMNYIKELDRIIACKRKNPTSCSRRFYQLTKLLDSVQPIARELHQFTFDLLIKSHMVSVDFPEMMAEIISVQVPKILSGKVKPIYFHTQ
# assay_overview: qHTS assay to identify small molecule antagonists of the androgen receptor (AR) signaling pathway (AID 743035); further: potency means the concentration at half of the fitted maximal effect
# condition_label: HEK293 AR-UAS-bla, R1881-stimulated, beta-lactamase FRET, 16 h; series mostly up to 58.5 µM
Results filed as inconclusive are left out. Active and inactive are the calls of the source. Calls come from the whole dose curve; as a rule, active = well fitted inhibition curve with a large enough effect in the signal ratio in the repeat runs (not every such curve was filed as active); inconclusive = weak or mixed curves, or effect the other way; inactive = no such curve, though single readings can be large or run the other way; the % refers to the signal ratio.

compound	experimental_target	Potency
CC(C)(CO)[C@@H](O)C(=O)NCCCC(=O)O	Androgen receptor (Homo sapiens) (UniProt P10275)	inactive
COC(=O)C1=C(C)NC(C)=C(C(=O)O[C@H]2CCN(Cc3ccccc3)C2)[C@H]1c1cccc([N+](=O)[O-])c1	Androgen receptor (Homo sapiens) (UniProt P10275)	26800 nM (active)
Oc1cc(O)cc(O)c1	Androgen receptor (Homo sapiens) (UniProt P10275)	inactive
CN[C@H]1CCc2cc(OC)c(OC)c(OC)c2-c2ccc(OC)c(=O)cc21	Androgen receptor (Homo sapiens) (UniProt P10275)	60.1 nM (active)
CC[C@]1(O)CC2CN(CCc3c([nH]c4ccccc34)[C@@](C(=O)OC)(c3cc4c(cc3OC)N(C)[C@H]3[C@@](O)(C(N)=O)[C@H](O)[C@]5(CC)C=CCN6CC[C@]43[C@@H]65)C2)C1 (stereo partly drawn)	Androgen receptor (Homo sapiens) (UniProt P10275)	213 nM (active)
CCCCOC(=O)C(=O)Nc1cccc(-c2nn[nH]n2)c1	Androgen receptor (Homo sapiens) (UniProt P10275)	inactive
N[C@@H](C(=O)N[C@@H]1C(=O)N2C(C(=O)O)=C(CSc3cn[nH]n3)CS[C@H]12)c1ccc(O)cc1	Androgen receptor (Homo sapiens) (UniProt P10275)	inactive
CC(=O)O[C@H]1C[C@@]2(C)[C@@H](C[C@@H](O)[C@H]3[C@@]4(C)CC[C@@H](O)[C@@H](C)[C@@H]4CC[C@@]32C)/C1=C(\CCC=C(C)C)C(=O)O	Androgen receptor (Homo sapiens) (UniProt P10275)	inactive

---

# assay_overview: qHTS assay to identify small molecule antagonists of the thyroid receptor (TR) signaling pathway (AID 743065); further: nearly all actives have a fitted effect of over 55% in size
# condition_label: GH3.TRE-Luc, T3-stimulated luciferase inhibition, 23.5 h; series mostly up to 70.3 µM
# Description: U.S. Tox21 Program National Center for Advancing Translational Sciences [NCATS] NIH Chemical Genomics Center [NCGC] U.S. Environmental Protection Agency [EPA] National Institutes of Environmental Health Sciences [NIEHS] National Toxicology Program [NTP] U.S. Food and Drug Administration [FDA] Tox21 Assay Overview: Thyroid receptor (TR), a nuclear hormone receptor, plays an important role in development, proliferation, differentiation, metabolism, brain function, and cardiovascular system. […]
Results filed as inconclusive are left out. Active and inactive are the calls of the source. Calls follow the shape of the dose curve; as a rule, active = well fitted inhibition curve with a large enough effect in the repeat runs; inconclusive = weak or mixed curves; inactive = no such curve, though single readings can be large or run the other way.
Outcomes: class 1 (active), class 0 (inactive)

molecule	label
C[C@@](Cc1ccc(O)c(O)c1)(NN)C(=O)O	class 0
O=C(O)C1CCCN1 (stereo not drawn)	class 0
NC(=O)OCC(O)COc1ccc(Cl)cc1 (stereo not drawn)	class 0
CC(C)c1nc(N(C)S(C)(=O)=O)nc(-c2ccc(F)cc2)c1/C=C/C(O)CC(O)CC(=O)O (stereo not drawn)	class 0
CC1=C(/C=C/C(C)=C/C=C/C(C)=C/C=C/C=C(C)/C=C/C=C(C)/C=C/C2=C(C)C(=O)CCC2(C)C)C(C)(C)CCC1=O	class 0
C#CCC(Cc1cnc2nc(N)nc(N)c2n1)c1ccc(C(=O)N[C@@H](CCC(=O)O)C(=O)O)cc1 (stereo partly drawn)	class 1
COc1cc(S(C)=O)ccc1-c1nc2ncccc2[nH]1 (stereo not drawn)	class 0
C=C[C@]1(C)C[C@@H](OC(=O)CSC(C)(C)CNC(=O)[C@H](N)C(C)C)[C@]2(C)[C@H](C)CC[C@]3(CCC(=O)[C@H]32)[C@@H](C)[C@@H]1O	class 1
Cc1cc2nc3c(=O)[nH]c(=O)nc-3n(C[C@H](O)[C@H](O)[C@H](O)COP(=O)(O)OP(=O)(O)OC[C@H]3O[C@@H](n4cnc5c(N)ncnc54)[C@H](O)[C@@H]3O)c2cc1C	class 0
CC1(C)S[C@@H]2[C@H](NC(=O)C3(N)CCCCC3)C(=O)N2[C@H]1C(=O)O	class 0
[O]=[Bi][O]C(=O)[O][Bi]=[O]	class 0
CC(C)[C@@H](N)C(=O)O	class 0
CC(=O)c1ccc2c(c1)N(CCCN1CCN(CCO)CC1)c1ccccc1S2	class 1
O=C(O)CCC/C=C\C[C@@H]1[C@@H](/C=C/[C@@H](O)COc2cccc(C(F)(F)F)c2)[C@H](O)C[C@@H]1O	class 0
Cc1cc(/C=C/c2ccc3cc(N(C)C)ccc3[n+]2C)c(C)n1-c1ccccc1	class 1
O=C(Cc1cccs1)N[C@@H]1C(=O)N2C(C(=O)[O-])=C(C[n+]3ccccc3)CS[C@H]12	class 0
CCCCC[C@H](O)/C=C/[C@@H]1[C@H]2C/C(=C/CCCC(=O)O)O[C@H]2C[C@H]1O	class 0
C=CCOc1ccc(CC(=O)O)cc1Cl	class 0
CC(=O)O[C@H]1C(=O)[C@@]2(C)[C@H]([C@H](OC(=O)c3ccccc3)[C@]3(O)C[C@H](OC(=O)[C@H](O)[C@@H](NC(=O)c4ccccc4)c4ccccc4)C(C)=C1C3(C)C)[C@]1(OC(C)=O)CO[C@@H]1C[C@@H]2O	class 1
Cc1ccc(S(=O)(=O)NC(=O)N[C@@H](C)Cc2ccccc2)cc1	class 0
CC(Oc1ccccc1)C(=O)N[C@@H]1C(=O)N2[C@@H]1SC(C)(C)[C@@H]2C(=O)O (stereo partly drawn)	class 0
COCC(=O)Nc1cc(Sc2ccccc2)ccc1N=C(NC(=O)OC)NC(=O)OC	class 1
O=[N+]([O-])c1ccc(Oc2ccc(N=C=S)cc2)cc1	class 1
CCCc1ccc(C(=O)O)cc1	class 0
CCCOc1ccc2nc(NC(=O)OC)sc2c1	class 1
CCCCCCCCCCCCCCCCCCOP(=O)([O-])OC1CC[N+](C)(C)CC1	class 0
CCCOc1cc(N)ccc1C(=O)OCCN(CC)CC	class 0
COc1cc(-c2ccc(-[n+]3nc(-c4ccccc4)nn3-c3ccc([N+](=O)[O-])cc3)c(OC)c2)ccc1-[n+]1nc(-c2ccccc2)nn1-c1ccc([N+](=O)[O-])cc1	class 1
CN1CCN(C2=Nc3ccccc3Cc3ccccc32)CC1	class 1
Cc1c(Cl)cccc1Nc1ncccc1C(=O)O	class 1
CCCCCCCCCCCCCCCCCC(=O)OC[C@@H](O)[C@H]1OC[C@H](O)[C@H]1O	class 0
Cc1c(O)cc2c(c1C)O[C@](C)(CCC[C@H](C)CCC[C@H](C)CCCC(C)C)CC2	class 0
CCCCCCC(=O)O[C@H]1CC[C@H]2[C@@H]3CCc4cc(O)ccc4[C@H]3CC[C@]12C	class 1
C[Se]CCC(N)C(=O)O (stereo not drawn)	class 0
CN1CCN2c3ncccc3Cc3ccccc3C2C1 (stereo not drawn)	class 1
O=C(O)C1=C(CSc2nnnn2CS(=O)(=O)O)CS[C@@H]2[C@H](NC(=O)[C@H](O)c3ccccc3)C(=O)N12	class 0
CCCCC(C)(O)C/C=C/[C@H]1[C@H](O)CC(=O)[C@@H]1CCCCCCC(=O)OC (stereo partly drawn)	class 0
C=C1CC[C@H](O)CC1=C/C=C1\CCC[C@]2(C)[C@@H]([C@H](C)CCCC(C)(C)O)CC[C@@H]12	class 1
